Where do these numbers come from? They come from ChEMBL document CHEMBL1141541.

assay: Clearance in rat at 1 mg/kg, iv; type: ADME, organism-based; design: dose 1 mg/kg, route intravenous; conditions: in vivo
Measured quantity: clearance (mL/min/kg)
# unit: mL/min/kg | format: bare number

Request the reported clearance associated with CC[C@@H](C)Nc1ncc(C(=O)Nc2cc(C(=O)NC)ccc2C)s1
14.1

----------
experiment: Volume of distribution at steady state in rat at 1 mg/kg, iv; format: ADME, organism-based; design: dose 1 mg/kg, route intravenous; details: in vivo, read-out: Vdss
Measured quantity: Vd (L/kg)
// return numeric value only (unit: L/kg, not printed)

Which Vd value belongs to CC[C@@H](C)Nc1ncc(C(=O)Nc2cc(C(=O)NC)ccc2C)s1 ?
1.8

----------
log10(IC50) reference
molecular target: Mitogen-activated protein kinase 14 (Homo sapiens)
Use the decimal logarithm of IC50 (nM).

CNC(=O)c1ccc(C)c(NC(=O)c2cnc(NCCOC)s2)c1
1.34
CCNc1ncc(C(=O)Nc2c(C)cccc2Cl)s1
2.15
CCCNc1ncc(C(=O)Nc2cc(C(N)=O)ccc2C)s1
0.61
CCCNc1ncc(C(=O)Nc2c(C)cccc2Cl)s1
1.45
CCNC(=O)c1ccc(C)c(NC(=O)c2cnc(NC(C)C)s2)c1
0.53

# query: log10(IC50) of entry CNC(=O)c1ccc(C)c(N2Cc3nc(NC(C)C)sc3C2=O)c1
2.04

Then CCCNc1nc2c(s1)C(=O)N(c1cc(C(=O)NCC)ccc1C)C2 ?
2.20

Repeat with Cc1cccc(Cl)c1NC(=O)c1cnc(NC2CCC2)s1
1.56

Here is the next compound: Cc1ccc(C(=O)Nc2ccn[nH]2)cc1NC(=O)c1cnc(NC(C)C)s1
0.62

----------
test: Permeability across human Caco-2 cells; assay type: ADME, cell-based; settings: read-out: permeability
Measured quantity: Papp (×10⁻⁶ cm/s)
Unit ×10⁻⁶ cm/s implied. Number only.

Return reported Papp; argument: CC[C@@H](C)Nc1ncc(C(=O)Nc2cc(C(=O)NC)ccc2C)s1
8.3

----------
target: Tyrosine-protein kinase Lck (Homo sapiens)
Sequence (P06239 whole entry): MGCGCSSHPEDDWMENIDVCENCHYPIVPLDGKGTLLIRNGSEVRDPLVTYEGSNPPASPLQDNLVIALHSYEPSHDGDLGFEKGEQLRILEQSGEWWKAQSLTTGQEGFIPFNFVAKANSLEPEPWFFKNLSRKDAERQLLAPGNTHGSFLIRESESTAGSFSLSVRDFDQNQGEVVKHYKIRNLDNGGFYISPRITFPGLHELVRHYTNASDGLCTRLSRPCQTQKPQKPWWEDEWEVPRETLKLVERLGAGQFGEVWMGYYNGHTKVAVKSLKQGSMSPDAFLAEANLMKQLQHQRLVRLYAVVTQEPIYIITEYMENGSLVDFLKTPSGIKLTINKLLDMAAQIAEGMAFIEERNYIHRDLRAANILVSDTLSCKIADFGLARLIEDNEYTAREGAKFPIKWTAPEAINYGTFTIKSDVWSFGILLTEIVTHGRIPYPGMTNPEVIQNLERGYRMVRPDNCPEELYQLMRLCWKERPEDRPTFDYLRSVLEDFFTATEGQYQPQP
Catalogue of compounds with associated IC50
Give the quantity in µM, number only.

Cc1cccc(Cl)c1NC(=O)c1cnc(NC2CC2)s1
0.14
CC[C@@H](C)Nc1ncc(C(=O)Nc2cc(C(=O)NC)ccc2C)s1
22

Consider the compound Cc1cccc(Cl)c1NC(=O)c1cnc(NC2CCC2)s1 and give its measured IC50.
3.31

----------
Consider compounds characterized by their IC50 with Mitogen-activated protein kinase 14 (Homo sapiens, UniProt Q16539).
Sequence (Q16539 whole entry): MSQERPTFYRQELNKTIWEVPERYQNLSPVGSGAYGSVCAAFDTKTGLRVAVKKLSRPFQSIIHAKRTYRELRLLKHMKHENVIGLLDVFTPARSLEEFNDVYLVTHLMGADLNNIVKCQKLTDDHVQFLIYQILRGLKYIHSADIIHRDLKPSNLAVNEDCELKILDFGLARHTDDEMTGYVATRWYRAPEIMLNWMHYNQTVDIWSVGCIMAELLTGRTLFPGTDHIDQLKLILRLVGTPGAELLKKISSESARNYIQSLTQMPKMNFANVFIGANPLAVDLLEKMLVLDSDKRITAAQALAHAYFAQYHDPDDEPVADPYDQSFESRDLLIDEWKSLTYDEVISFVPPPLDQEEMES
Report the value in nM with no unit label.

Example results:
CCCNc1nc(C)c(C(=O)Nc2cc(C(=O)NCC)ccc2C)s1
130
CCCNc1nc2c(s1)C(=O)N(c1cc(C(=O)NC)ccc1C)C2
270
CCCNc1ncc(C(=O)Nc2cc(C(=O)NCC)ccc2C)s1
2

Looking for the measured IC50 of CNC(=O)c1ccc(C)c(NC(=O)c2cnc(NC(C)C)s2)c1 , can you help?
3.5

Entry CCNC(=O)c1ccc(C)c(NC(=O)c2sc(NCC)nc2C)c1 please
330

How about Cc1ccc(C(=O)Nc2ccnn2C)cc1NC(=O)c1cnc(NC(C)C)s1 ?
5.4

----------
assay: Drug level in rat serum at 1 mg/kg after 18 hrs; type: ADME, organism-based; parameters: dose 1 mg/kg; conditions: read-out: Drug uptake
Measured quantity: concentration at 18 h (nM)
Report the value in nM with no unit label.

What value of concentration at 18 h has been reported for the following compound? CC[C@@H](C)Nc1ncc(C(=O)Nc2cc(C(=O)NC)ccc2C)s1
8.1
